- method: Rapid equilibrium dialysis
- Type: in vitro ADME
- condition_label: human, plasma, pH 7.4
Where a name gives a salt, the structure may show the parent alone.
measurement_type: fraction unbound at 4 h, 10 μM
Give bare numbers.

Some compounds with recorded fraction unbound at 4 h, 10 μM:
C[C@]12CCC(=O)C=C1CC[C@@H]1[C@@H]2[C@@H](O)C[C@@]2(C)[C@H]1CC[C@]2(O)C(=O)CO [Hydrocortisone] | 0.279
CC(C)NCC(O)COc1cccc2ccccc12 (stereo not shown) [Propranolol HCl] | 0.166
CC[C@]1(O)C[C@@H]2CN(CCc3c([nH]c4ccccc34)[C@@](C(=O)OC)(c3cc4c(cc3OC)N(C)[C@H]3[C@@](O)(C(=O)OC)[C@H](OC(C)=O)[C@]5(CC)C=CCN6CC[C@]43[C@@H]65)C2)C1 | 0.113

Proceed to the following item.
**Q:** Suppose we examine the compound `Cc1nnc(NS(=O)(=O)c2ccc(N)cc2)s1` ; what fraction unbound at 4 h, 10 μM value has been reported?
**A:** 0.108
